Here, each record is paired with measured activation data.
# Test Target: Cellular tumor antigen p53 (Homo sapiens)
# Assay Text: Primary qHTS for small molecule compounds that upregulate eGFP-tagged delta133p53alpha (in N-terminal) cells. (AID 2060322);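 further: cells pre-induced with doxycycline then dosed without doxycycline; 0% = DMSO vehicle and 100% = reference activator; nearly all actives have a fitted effect of over 75% in size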
# Measurement Setup: NCI-H358 eGFP-delta133p53alpha fluorescence, 24 h; hits give high values
Inconclusive results are not listed. Activity calls are given as the source filed them. The call rests on the fitted dose curve; in most records, active means well fitted activation curve with a large enough effect; inconclusive means small, poorly fitted or top-dose-only effect; inactive means no such curve, though single readings can be large or run the other way.

Reference set, count: 8
{"Compound": "N[C@H](C(=O)O)[C@H](Cc1ccccc1)C(=O)O", "Reported Measurement": "1.24% (inactive)"}
{"Compound": "CC1(C)CC[C@]2(C(=O)O)CC[C@]3(C)C(=CCC4[C@@]5(C)CC[C@H](O[C@@H]6O[C@H](C(=O)O)[C@@H](O)[C@H](O)[C@H]6O)C(C)(C)C5CC[C@]43C)C2C1 (some centres undefined)", "Reported Measurement": "11.5% (inactive)"}
{"Compound": "O=C(O[C@@H]1O[C@H](CO)[C@@H](O)[C@H](O)[C@H]1O)c1ccccc1", "Reported Measurement": "-9.82% (inactive)"}
{"Compound": "CC(C)CCCC(C)NCCC(C)C (centres undefined)", "Reported Measurement": "-13.4% (inactive)"}
{"Compound": "Cc1cccc(CC(=O)N2CCc3c2ccc(-c2cn(C)c4ncnc(N)c24)c3F)n1", "Reported Measurement": "0.893% (inactive)"}
{"Compound": "CCOc1c(N2CCOCC2)cnn(C)c1=O", "Reported Measurement": "-4.18% (inactive)"}
{"Compound": "COc1ccc(-n2c(C)c([N+](=O)[O-])c3ccc(O)cc32)cc1", "Reported Measurement": "-5.31% (inactive)"}
{"Compound": "O=C(Cc1ccc(-c2ccccc2)cc1)NC1CCC1", "Reported Measurement": "-1% (inactive)"}

Now consider the entry below.
Value of activation reported for the compound C/C(=C/CO)CCC1C(C)CCC2C(C)(C)CCCC12C (centres undefined) is -9.92% (inactive)

---

# Assay Text: BET inhibitor-based combinations targeting novel dependencies in MECOM-rearranged (r) AML: OCI-AML3 cell line (AID 2202232); further: nearly all actives have a fitted effect of over 35% in size
# Measurement Setup: CellTiter-Glo luminescence, 48 h; OCI-AML3 viability; series mostly up to 46 µM
# Experimental: Ecotropic viral insertion site 1 (EVI1) is located on chromosome 3q26.2 as part of the MECOM (MDS and EVI1 complex) locus. […] A collection of 2480 mechanistically annotated dugs (MIPE v5.0) was used to screen four 3q26.2 rearranged AML cell lines and three non-3q26.2 rearranged AML cell lines. […] Cell viability was determined by luminescence based, Cell Titer Glo assay (Promega). […] Luminescence readings were taken using a Viewlux (PerkinElmer) with a 2 s exposure time per plate. […]
Results filed as inconclusive are left out. Activity calls are given as the source filed them. The call rests on the fitted dose curve; in most records, active means well fitted inhibition curve with a large enough effect; inconclusive means small, poorly fitted or top-dose-only effect; inactive means no such curve, though single readings can be large or run the other way.
Respond using exactly one of the listed classes: active, inactive

{"Molecule": "NS(=O)(=O)c1cc2c(cc1Cl)NCNS2(=O)=O", "Assigned Class": "inactive"}
{"Molecule": "CC(C)C[C@H](NC(=O)[C@H](Cc1ccccc1)NC(=O)c1cnccn1)B(O)O", "Assigned Class": "active"}
{"Molecule": "CCc1nc(-c2cccc(C)c2)c(-c2ccnc(NC(=O)c3ccccc3)c2)s1", "Assigned Class": "active"}
{"Molecule": "Clc1ccccc1C(c1ccccc1)(c1ccccc1)n1ccnc1", "Assigned Class": "active"}
{"Molecule": "CN[C@H]1CC[C@@H](c2ccc(Cl)c(Cl)c2)c2ccccc21", "Assigned Class": "active"}

Prompt: Call for entry C[C@@H](NCc1cc2ccccc2[nH]1)c1cccc2ccccc12 :
Response: active

Prompt: Call for entry O=C(Nc1c(Cl)cncc1Cl)c1ccc(OC(F)F)c(OCC2CC2)c1 :
Response: inactive

Prompt: Call for entry CCc1c2c(nc3ccc(O)cc13)-c1cc3c(c(=O)n1C2)COC(=O)[C@]3(O)CC :
Response: active

Prompt: Call for entry CC(C)(C)C(=O)CN1C(=O)[C@H](NC(=O)Nc2cccc(C(=O)O)c2)CN(C2CCCCC2)c2ccccc21 :
Response: inactive

Prompt: Call for entry NC(=O)c1noc([C@H](CCCC2CCCCC2)CC(=O)NO)n1 :
Response: active

Prompt: Call for entry CC(C)(F)C[C@H](N[C@@H](c1ccc(-c2ccc(S(C)(=O)=O)cc2)cc1)C(F)(F)F)C(=O)NC1(C#N)CC1 :
Response: inactive

Prompt: Call for entry CCc1cc(-c2n[nH]c(C)c2-c2ccc3c(c2)OCCO3)c(O)cc1O :
Response: active

Prompt: Call for entry COc1ccc2c3n(c(=NC(=O)c4cccnc4)nc2c1OC)CCN3 :
Response: active

Prompt: Call for entry CCOc1cc(C(C)(C)C)ccc1C1=N[C@@](C)(c2ccc(Cl)cc2)[C@@](C)(c2ccc(Cl)cc2)N1C(=O)N1CCN(CC(=O)N2CCOCC2)CC1 :
Response: active

Prompt: Call for entry O=C(c1ccc(OCCN2CCCCC2)cc1)c1c(-c2ccc(O)cc2)sc2cc(O)ccc12 :
Response: active

Prompt: Call for entry C=CC(=O)Nc1cccc(Nc2nc(Nc3ccc(NC4CN(CCF)C4)cc3OC)ncc2C(F)(F)F)c1 :
Response: active

Prompt: Call for entry Cc1cc(NC(=O)Nc2ccc(N(C)C)cc2)c2cc(F)cc(F)c2n1 :
Response: active

---

# Assay Text: BET inhibitor-based combinations targeting novel dependencies in MECOM-rearranged (r) AML: HNT-34 cell line (AID 2202234); further: nearly all actives have a fitted effect of over 35% in size
# Measurement Setup: HNT-34 AML viability, CellTiter-Glo luminescence, 48 h; series mostly up to 46 µM
Inconclusive results are not listed. The source made the active and inactive calls. Calls come from the whole dose curve; as a rule, active = well fitted inhibition curve with a large enough effect; inconclusive = small, poorly fitted or top-dose-only effect; inactive = no such curve, though single readings can be large or run the other way.
Respond using exactly one of the listed classes: class 1 for active, class 0 for inactive

Record excerpt, results attached:
{"Molecule": "C=C1C[C@@]2(O)O[C@@]3(C[C@H]2C(C)C)[C@@H](C)CC[C@@H]13", "Assigned Class": "class 0"}
{"Molecule": "CS(=O)(=O)N1CCC(NC(=O)c2[nH]ncc2NC(=O)c2c(Cl)cccc2Cl)CC1", "Assigned Class": "class 1"}

Prompt: Call for entry CCCCCCCN(CC)CCCC(O)c1ccc(NS(C)(=O)=O)cc1 (stereo not given) :
Response: class 0

Prompt: Call for entry NC(=O)c1ccc(-c2nc(-c3ccc4c(c3)OCO4)c(-c3ccccn3)[nH]2)cc1 :
Response: class 0

Prompt: Call for entry O=C1CCC[C@@H]2[C@H]3CCC[N+]4([O-])CCC[C@@H](CN12)[C@@H]34 (stereo not given in full) :
Response: class 0

Prompt: Call for entry CCCOc1ccc(CCc2nc3cc(-c4c(C)noc4C)ccc3n2CCN2CCOCC2)cc1 :
Response: class 1

Prompt: Call for entry CCn1c(C(=O)N(C2CC2)C2CC2)cc2c3c(ncn3C)c(Nc3cc(C)n(C)n3)nc21 :
Response: class 1

Prompt: Call for entry COc1cc2c(Oc3ccc4[nH]c(C)cc4c3F)ncnc2cc1OCCCN1CCCC1 :
Response: class 1

Prompt: Call for entry Cc1c(-c2ccnn2C)cc(C(=O)NCc2ccc(S(C)(=O)=O)cn2)c(=O)n1-c1cccc(C(F)(F)F)c1 :
Response: class 0

Prompt: Call for entry Cc1cn([C@@H]2C[C@@H](O)[C@H](CO)O2)c(=O)[nH]c1=O :
Response: class 0

---

# Test Target: Cellular tumor antigen p53 (Homo sapiens) (UniProt P04637)
# Sequence (P04637 whole entry, looked up): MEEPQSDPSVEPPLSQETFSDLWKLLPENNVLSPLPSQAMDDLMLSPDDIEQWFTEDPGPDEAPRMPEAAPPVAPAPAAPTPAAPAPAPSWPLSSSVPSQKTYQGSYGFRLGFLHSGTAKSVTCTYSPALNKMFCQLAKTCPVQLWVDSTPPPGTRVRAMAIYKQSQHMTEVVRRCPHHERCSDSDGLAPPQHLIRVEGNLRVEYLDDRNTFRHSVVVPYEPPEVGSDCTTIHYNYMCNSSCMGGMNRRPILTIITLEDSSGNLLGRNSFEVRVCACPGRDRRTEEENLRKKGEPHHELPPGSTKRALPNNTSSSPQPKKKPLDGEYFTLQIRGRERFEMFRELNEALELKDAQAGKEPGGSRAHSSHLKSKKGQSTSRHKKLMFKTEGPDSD
# Assay Text: Primary qHTS for small molecule compounds that upregulate eGFP-tagged delta133p53alpha (in N-terminal) cells. (AID 2060322);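 further: cells pre-induced with doxycycline then dosed without doxycycline; 0% = DMSO vehicle and 100% = reference activator; nearly all actives have a fitted effect of over 75% in size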
# Measurement Setup: NCI-H358 eGFP-delta133p53alpha fluorescence, 24 h; hits give high values
Inconclusive results are not listed.
Observation Type: activation (%)
State the answer as a number, implicitly in %.

Reference set, count: 5
{"Molecule": "COc1cc(/C=C/C(=O)O[C@H]2C[C@@H]3C(C(=O)O)=CO[C@@H](O[C@@H]4O[C@H](CO)[C@@H](O)[C@H](O)[C@H]4O)[C@@H]3[C@H]2C)ccc1O", "Test Target": "Cellular tumor antigen p53 (Homo sapiens) (UniProt P04637)", "Units Text": "%", "activation": -2.29}
{"Molecule": "CN1CCN(C2=Nc3ccccc3Sc3ccc(Cl)cc32)CC1", "Test Target": "Cellular tumor antigen p53 (Homo sapiens) (UniProt P04637)", "Units Text": "%", "activation": 15.3}
{"Molecule": "Cc1cc(CS(=O)(=O)c2ccccc2)cc(OCc2ccc(CN3CCCC3CO)cc2)c1 (stereo unspecified)", "Test Target": "Cellular tumor antigen p53 (Homo sapiens) (UniProt P04637)", "Units Text": "%", "activation": 8.93}
{"Molecule": "COc1cc(C)c(C(=O)NC2C(C)OC(OC3CCC(C)C4C3C=C(C)C3/C(C)=C\\CC/C(C)=C/C5(C)C=C(C(=O)O)C(C)CC56OC(=O)/C(=C(\\O)C34C)C6=O)C(O)C2(C)O)c(O)c1 (stereo unspecified)", "Test Target": "Cellular tumor antigen p53 (Homo sapiens) (UniProt P04637)", "Units Text": "%", "activation": 3.82}
{"Molecule": "COc1cc2c(cc1OC)-c1[nH]nc(Nc3cccc(F)c3)c1C2", "Test Target": "Cellular tumor antigen p53 (Homo sapiens) (UniProt P04637)", "Units Text": "%", "activation": 6.68}

Now consider the entry below.
Value of activation reported for the molecule CC(=O)OC/C=C(\C)C(CC1C(C)=C(OC(C)=O)C(=O)C2C(C)(C)C(O)CCC12C)OC(C)=O (stereo unspecified) is -2.68
